These measurements were taken from patent US7498343B2.

system: Mycobacterium tuberculosis (strain H37RV); assay: In-vitro method for testing compounds against M. tuberculosis (resazurin growth inhibition, MIC); type: cell-based; details: MIC data representing IC90's, 7 days incubation, resazurin fluorescence
MIC values, listed per item
readout: MIC (microgram/ml)

COc1nc2ccc(Br)cc2cc1C(c1ccccc1)C(O)(CCCCN(C)C)c1cccc2ccccc12 (single isomer, unassigned)	9.25
COc1nc2ccc(-c3ccco3)cc2cc1C(c1ccccc1)C(O)(CCN(C)C)c1cccc(F)c1 (single isomer, unassigned) [Compound 174]	0.06
COc1nc2ccc(Br)cc2cc1C(c1ccccc1)C(O)(CCN1CCOCC1)c1ccc2ccccc2c1 (single isomer, unassigned) [Compound 140]	59.76
